Source of measurements: patent US11358956B2

Measured Emax of individual entries
target: human GPR119 receptor (Homo sapiens, UniProt Q8TDV5); construct: host or cells: CHO; assay: LANCE Ultra cAMP assay: stimulation of GPR119-mediated cAMP production in CHO cells stably expressing human GPR119 receptor; assay type: cell-based; conditions: Table 2C entries 1-4, modified protocol, 500 cells/well, read-out: % cAMP Max. relative to forscolin
Sequence (Q8TDV5 whole entry): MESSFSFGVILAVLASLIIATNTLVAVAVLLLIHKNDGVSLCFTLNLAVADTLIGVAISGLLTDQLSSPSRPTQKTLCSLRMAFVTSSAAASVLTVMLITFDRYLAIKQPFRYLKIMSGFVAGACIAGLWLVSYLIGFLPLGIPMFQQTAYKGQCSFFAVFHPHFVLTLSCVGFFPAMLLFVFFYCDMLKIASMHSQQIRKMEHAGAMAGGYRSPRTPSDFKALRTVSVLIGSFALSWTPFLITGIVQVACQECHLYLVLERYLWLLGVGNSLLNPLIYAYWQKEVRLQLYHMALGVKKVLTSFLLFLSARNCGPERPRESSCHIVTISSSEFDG
# value in %; strip the unit string

The examples below pair each entry with its known result.
{"Compound": "O=S1(=O)c2ccc(-c3ccc(OCC4CCN(c5ncc(Cl)cn5)CC4)c(F)c3)cc2OC12CCCC2 [Example C-8]", "Numeric result": 66}
{"Compound": "CC1(C)Oc2cc(-c3ccc(OCC4CCN(c5ncc(Cl)cn5)CC4)c(F)c3)ccc2S1(=O)=O [Example C-5]", "Numeric result": 81}
{"Compound": "O=S1(=O)c2ccc(-c3ccc(OCC4CCN(c5ncc(Cl)cn5)CC4)c(F)c3)cc2OC12CCC2 [Example C-14]", "Numeric result": 67}

Now for the compound whose Emax we want.
Under human GPR119 receptor (Homo sapiens, UniProt Q8TDV5): Emax value of O=S1(=O)c2ccc(-c3ccc(OCC4CCN(c5ncc(Cl)cn5)CC4)c(F)c3)cc2OC12CCCCC2 [Example C-11] ? 25
